# measured-on: RSV N-RNA complex (Human respiratory syncytial virus A, UniProt P03418)
# Construct: Full-length N was produced by co-expression with the C-terminal domain of RSV P protein in E. coli BL21(DE3); made in house; host or cells: E. coli BL21(DE3), co-transformed with pET-N and pGEX-P(161–241)
# Sequence (P03418 whole entry, looked up, the tested form may be a part, one chain of several): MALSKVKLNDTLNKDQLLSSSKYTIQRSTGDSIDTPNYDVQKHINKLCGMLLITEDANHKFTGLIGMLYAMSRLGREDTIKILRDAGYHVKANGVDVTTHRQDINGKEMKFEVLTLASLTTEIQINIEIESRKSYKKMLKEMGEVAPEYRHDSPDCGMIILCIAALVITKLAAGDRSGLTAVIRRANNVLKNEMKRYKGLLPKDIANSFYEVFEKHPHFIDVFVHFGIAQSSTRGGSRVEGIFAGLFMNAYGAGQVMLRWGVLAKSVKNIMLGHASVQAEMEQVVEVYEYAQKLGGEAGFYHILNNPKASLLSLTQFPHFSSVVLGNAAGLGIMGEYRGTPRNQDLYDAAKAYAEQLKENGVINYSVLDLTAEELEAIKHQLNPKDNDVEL
# procedure-text: Fluorescence polarization inhibition of N-RNA binding to fluorescent probes
# test-conditions: probe BCN8E 200 nM, [N-RNA] 2 µM, Tris pH 8; read-out: Fitted IC50
# Method: We next performed inhibition experiments for the F11-(N-RNA) complex by M76 (Figure 4B). FP values decreased with increasing competitor concentration. […] Inhibition constants Ki were calculated on the IC50-to-Ki converter for a protein-ligand-inhibitor system (https://bioinfo-abcc.ncifcrf.gov/IC50_Ki_Converter/index.php, accessed on 24 August 2022), assuming a competitive mechanism (Equation (13)). […]
result-type: IC50 (µM)
Answers are plain numbers, in µM.

Ask: Item under review: O=C(O)c1cc(C(=O)O)n(Cc2ccc(Cl)cc2Cl)n1 [M76] . Reported IC50?
Reply: 4.5

This collection of values is drawn from paper PMC9820559.
